run description: in vitro
measurement setup: human, hela cells, % viability
# viability at 28.5 h, 10 µM listing for each entry below
quantity name: viability at 28.5 h, 10 µM (%)

INSERT INTO results (molecule, numeric_value) VALUES
  ('Cn1cc(NC(=O)N2CCCN(Cc3ccccn3)CC2)nn1 [CBK307034]', 86.8),
  ('Cc1nn(-c2ccc(C(=O)O)cc2)c2c1C(=O)CC(C)(C)C2 [CBK286734]', 86.4),
  ('CCc1cc2c(=O)c(-c3nc(C)cs3)c(CCC(=O)O)oc2cc1O [CBK264838]', 108),
  ('CC1(C)OCC2(CCN(C(C)(C)C)CC2)O1 [CBK038298]', 93.2),
  ('O=C1C(C2CCN(Cc3ccc4ncccc4c3)CC2)CC=CCN1Cc1ccccc1 (centres unmarked) [CBK286269]', 108),
  ('COC(C)CN(C)C(=O)c1oc2cc(C)ccc2c1C (centres unmarked) [CBK282043]', 88.1),
  ('Cc1ccc([N+](=O)[O-])cc1NC(=O)CN(Cc1ccc(Cl)cc1)S(C)(=O)=O [CBK267981]', 87.8),
  ('Cc1ccc(Cl)cc1N=C(N)N=C(N)N [CBK268049]', 98.8),
  ('CC(NC(=O)C1CCN(C2Cc3ccccc3C2)CC1)c1ccccc1 (centres unmarked) [CBK148031]', 95.7),
  ('Clc1cccc(-c2cn3ccnc3c(NCc3cccnc3)n2)c1 [CBK066237]', 104),
  ('CN(C)Cc1cc(C(C)(C)C)cc(CN(C)C)c1O [CBK266994]', 98.4),
  ('COc1ccccc1N(CCCc1cc(C(F)(F)F)cc(C(F)(F)F)c1)C(=O)C(N)C(C)C (centres unmarked) [CBK001004T]', 98.5),
  ('Cc1cc(NS(=O)(=O)c2ccc(Cl)c([N+](=O)[O-])c2)n(C)n1 [CBK067259]', 96.8),
  ('CCN1CCC(NC(=O)CSc2nc3ccccc3n2CCOC)CC1 [CBK306100]', 118),
  ('O=C(O)CCC1C(=O)CCC1(C(=O)O)c1ccccc1 (centres unmarked) [CBK287208]', 108),
  ('CCN(C(=O)Cn1c(C)cc(=O)c2ccccc21)C1CCOC(C)(C)C1 (centres unmarked) [CBK306797]', 93.6),
  ('CCOC(=O)CNS(=O)(=O)c1cccs1 [CBK044958]', 93.3),
  ('CC1=NN(C(=O)c2c(Cl)c(C)nn2C)C(O)(C(F)(F)F)C1 (centres unmarked) [CBK058892]', 117),
  ('CC(Oc1ccc(/C=C/[N+](=O)[O-])cc1)C(=O)O (centres unmarked) [CBK264042]', 99.9),
  ('CC(=O)Nc1nnn(CCOc2nonc2C)n1 [CBK027320]', 90.2);

###

run description: in vitro
measurement setup: human, hela cells, % viability
# viability at 28.5 h, 10 µM listing for each entry below
quantity name: viability at 28.5 h, 10 µM (%)

INSERT INTO measurements (molecule, quantity_name, numeric_value) VALUES
  ('Cc1cc(OCC(=O)NCc2cccnc2)cc(C)c1Cl [CBK263658]', 'viability at 28.5 h, 10 µM', 86.5),
  ('COCc1cccc(-c2ncc(OCc3ccccn3)nc2N)c1 [CBK145108]', 'viability at 28.5 h, 10 µM', 93.9),
  ('O=C(NC[C@H]1CCCN(C(=O)c2cccs2)C1)c1ccco1 [CBK284261]', 'viability at 28.5 h, 10 µM', 94.6),
  ('O=C(O)CSc1ccc(Cl)cc1 [CBK115571]', 'viability at 28.5 h, 10 µM', 88.4),
  ('Cc1cc(C)n(C(C)C(=O)NCC2(N(C)C)CCCC2)n1 (centres unmarked) [CBK281713]', 'viability at 28.5 h, 10 µM', 107),
  ('COc1c(I)cc(Br)cc1/C=N/NC(=O)CC#N [CBK025764]', 'viability at 28.5 h, 10 µM', 91.8),
  ('COc1ccccc1N1CCN(CC2CN(c3ccccc3)c3ccccc3O2)CC1 (centres unmarked) [CBK066872C]', 'viability at 28.5 h, 10 µM', 84.7),
  ('CCC(CC)C(=O)N(C)c1c(C)nc2ccc(C(=O)N3CCN(S(=O)(=O)CC)CC3)cn12 [CBK146524]', 'viability at 28.5 h, 10 µM', 92),
  ('O=C1NC(=O)C2(CCN(C(=O)c3csc4c3CCCC4)CC2)N1 [CBK305601]', 'viability at 28.5 h, 10 µM', 97.2),
  ('CC(=O)Nc1nc(C(=O)N2CCOC(c3ccc(F)cc3)C2)cs1 (centres unmarked) [CBK244238]', 'viability at 28.5 h, 10 µM', 99.3),
  ('COC(=O)c1cc(C#N)c(=O)n(CC(=O)Nc2ccc(OC)c(OC)c2)c1 [CBK297926]', 'viability at 28.5 h, 10 µM', 102),
  ('CCC1C(=O)NCCN1C(=O)Cc1cccc2cccnc12 (centres unmarked) [CBK281728]', 'viability at 28.5 h, 10 µM', 104),
  ('Cc1cccc(C)c1NC(=S)N1CCC2(CC1)OCCO2 [CBK016408]', 'viability at 28.5 h, 10 µM', 117),
  ('COc1ncc(-c2cncc(N3CCCN(C)CC3)n2)c(OC)n1 [CBK065286]', 'viability at 28.5 h, 10 µM', 104),
  ('COc1ccc(Sc2cc3n(c(=O)n2)CCc2cc(OC)c(OC)cc2-3)cc1 [CBK291186]', 'viability at 28.5 h, 10 µM', 81.9),
  ('O=C(CSc1ccc(Cl)cc1)OCC(=O)c1ccccc1 [CBK264306]', 'viability at 28.5 h, 10 µM', 106),
  ('O=C(CSc1nnc(-c2ccccc2)n1-c1ccc(Cl)cc1)NCc1ccco1 [CBK266637]', 'viability at 28.5 h, 10 µM', 99.2),
  ('Cc1ccc(C(=O)N/C(=C\c2ccccc2F)c2n[nH]c(=S)[nH]2)cc1 [CBK263136]', 'viability at 28.5 h, 10 µM', 87.4),
  ('Cc1ccc(-c2nccnc2OCCOc2ccccc2)c(C)c1 [CBK106991]', 'viability at 28.5 h, 10 µM', 86.1),
  ('COc1cc(S(=O)(=O)N2CCC(C(N)=O)CC2)ccc1Br [CBK268766]', 'viability at 28.5 h, 10 µM', 82.6);

###

run description: in vitro
measurement setup: human, hela cells, % viability
quantity name: viability at 28.5 h, 10 µM (%)

INSERT INTO measurements (molecule, quantity_name, unit_abbrev, numeric_value) VALUES
  ('CCn1cnnc1CNC(=O)N1CCCN(Cc2cccs2)CC1', 'viability at 28.5 h, 10 µM', '%', 97.6),
  ('Cc1cc(Cc2cnc(NC(=O)C3CCS(=O)(=O)C3)s2)ccc1Br (stereo not shown)', 'viability at 28.5 h, 10 µM', '%', 90),
  ('O=C(O)c1cccc(NS(=O)(=O)c2cccc(S(=O)(=O)c3ccc(Cl)c(Cl)c3)c2)c1', 'viability at 28.5 h, 10 µM', '%', 102),
  ('CCCCC(c1cccnc1)N(C)C(=O)CCc1ccnn1C (stereo not shown)', 'viability at 28.5 h, 10 µM', '%', 117),
  ('CC(C)Nc1cc(SCCN(C)C)ncn1', 'viability at 28.5 h, 10 µM', '%', 109),
  ('CCOc1cc(O)c(-c2nc(N)ncc2-c2ccc3c(c2)OCCO3)cc1CC', 'viability at 28.5 h, 10 µM', '%', 94.7),
  ('Cc1ccc(S(=O)(=O)NCC2CCC(C(=O)Oc3ccc4ccc(=O)oc4c3)CC2)cc1 (stereo not shown)', 'viability at 28.5 h, 10 µM', '%', 87.9),
  ('O=C(O)CC/C(=N\Nc1ccc([N+](=O)[O-])cc1)c1ccc(F)cc1', 'viability at 28.5 h, 10 µM', '%', 110),
  ('Cc1ccc(-c2nn(CCC#N)cc2C(=O)N2CCOCC2)cc1C', 'viability at 28.5 h, 10 µM', '%', 96.7),
  ('Cc1nc2c(C)cccc2c(O)c1CN1CCCCCC1', 'viability at 28.5 h, 10 µM', '%', 98.1),
  ('O=C(O)COc1ccc(NC(=O)C(c2ccccc2)c2ccccc2)cc1', 'viability at 28.5 h, 10 µM', '%', 99.6),
  ('O=C(O)c1cc(S(=O)(=O)Nc2ccccc2C(=O)O)ccc1Br', 'viability at 28.5 h, 10 µM', '%', 98.8),
  ('Cc1cc(C)n(C2CCN(Cc3ccc(-n4ccnc4C)cc3)CC2)n1', 'viability at 28.5 h, 10 µM', '%', 112),
  ('CNC(=O)C1(C)CCCN1C(=O)c1cc2cc(C)ccc2n1C (stereo not shown)', 'viability at 28.5 h, 10 µM', '%', 86.1),
  ('CC(C)C(=O)Nc1cccc(NC(=O)COc2ccc(Br)cc2)c1', 'viability at 28.5 h, 10 µM', '%', 94),
  ('CCn1c(SCC(=O)Nc2cccc([N+](=O)[O-])c2)nnc1-c1cc(Br)ccc1O', 'viability at 28.5 h, 10 µM', '%', 86),
  ('O=C(CSc1nnc(-c2cccnc2)n1-c1ccc(Br)cc1)Nc1ccc2c(c1)OCO2', 'viability at 28.5 h, 10 µM', '%', 93.8),
  ('Cc1cc(S(=O)(=O)NCc2ccccc2)ccc1OCC(=O)N1CCN(C)CC1', 'viability at 28.5 h, 10 µM', '%', 86.4),
  ('COc1ccc(NC(=O)Nc2nn(Cc3c(F)cccc3Cl)cc2Cl)cc1OC', 'viability at 28.5 h, 10 µM', '%', 89.3);

Where do these numbers come from? They come from paper PMC12040169.
